Where do these numbers come from? They come from patent US12227501B2.

Biological target: human CSNK1A1 (Homo sapiens (Human), UniProt P48729)
Sequence (P48729 whole entry): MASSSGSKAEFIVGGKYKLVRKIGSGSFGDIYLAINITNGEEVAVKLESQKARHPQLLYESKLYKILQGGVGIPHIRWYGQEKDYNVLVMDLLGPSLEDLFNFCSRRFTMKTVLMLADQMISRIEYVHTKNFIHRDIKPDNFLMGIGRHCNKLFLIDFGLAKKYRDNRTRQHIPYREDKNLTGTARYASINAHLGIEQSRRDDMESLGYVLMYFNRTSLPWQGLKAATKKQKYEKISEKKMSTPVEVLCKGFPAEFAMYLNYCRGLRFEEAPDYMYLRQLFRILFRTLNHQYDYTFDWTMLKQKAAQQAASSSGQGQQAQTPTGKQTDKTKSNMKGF
Assay: CSNK1A1 High ATP Assay (ADP-Glo, 1 mM ATP)
Type: biochemical
Settings: read-out: CSNK1A1 high ATP assay IC50 [mol/l] (median)
RECORDED ENDPOINT: IC50 (nM)

[
  {
    "COMPOUND": "Cc1ccccc1Nc1c(-c2ccnc(NC(=O)C(CC(F)F)c3ccc(F)cc3)c2)[nH]c2c1C(=O)NC1(CCC1)C2 (racemic) [Example 143]",
    "RECORDED ENDPOINT": "IC50",
    "OBSERVED RESULT": 32
  },
  {
    "COMPOUND": "Cc1ccccc1Nc1c(-c2ccnc(NC(=O)C(CC(F)F)c3ccc(F)cc3)c2)[nH]c2c1C(=O)NC(C)(C)C2 (single isomer, unassigned; enantiomer 2) [Example 137]",
    "RECORDED ENDPOINT": "IC50",
    "OBSERVED RESULT": 451
  },
  {
    "COMPOUND": "CC1(C)Cc2[nH]c(-c3ccnc(NC(=O)C(CC(F)F)c4ccc(F)cc4)c3)c(Nc3ccccc3)c2C(=O)N1 (racemic) [Example 48]",
    "RECORDED ENDPOINT": "IC50",
    "OBSERVED RESULT": 37
  },
  {
    "COMPOUND": "CN1CCc2[nH]c(-c3ccnc(NC(=O)C(CC(F)F)c4ccccc4)c3)c(Nc3ccccc3)c2C1=O (single isomer, unassigned) [Example 35]",
    "RECORDED ENDPOINT": "IC50",
    "OBSERVED RESULT": 705
  },
  {
    "COMPOUND": "CC(C(=O)Nc1cc(-c2[nH]c3c(c2Nc2ccccc2)C(=O)NC(C)(C)C3)ccn1)c1ccc(F)cc1 (stereo not drawn) [Example 27]",
    "RECORDED ENDPOINT": "IC50",
    "OBSERVED RESULT": 157
  },
  {
    "COMPOUND": "CN1CCc2[nH]c(-c3ccnc(NC(=O)Cc4ccc(F)cc4F)c3)c(Nc3ccccc3)c2C1=O [Example 82]",
    "RECORDED ENDPOINT": "IC50",
    "OBSERVED RESULT": 162
  },
  {
    "COMPOUND": "CC1(C)Cc2[nH]c(-c3ccnc(NC(=O)C(CC(F)F)c4ccc(F)cc4)c3)c(Nc3cccc(F)n3)c2C(=O)N1 (single isomer, unassigned; enantiomer 2) [Example 130]",
    "RECORDED ENDPOINT": "IC50",
    "OBSERVED RESULT": 1340
  },
  {
    "COMPOUND": "CC1(C)Cc2[nH]c(-c3ccnc(NC(=O)C(CC(F)F)c4ccc(F)cc4)c3)c(Nc3ccccc3)c2C(=O)N1 (single isomer, unassigned) [Example 50]",
    "RECORDED ENDPOINT": "IC50",
    "OBSERVED RESULT": 2460
  },
  {
    "COMPOUND": "CC1(C)Cc2[nH]c(-c3ccnc(NC(=O)C(CN)c4ccc(F)cc4)c3)c(Nc3ccccc3)c2C(=O)N1 (single isomer, unassigned; enantiomer 1) [Example 140]",
    "RECORDED ENDPOINT": "IC50",
    "OBSERVED RESULT": 56.9
  },
  {
    "COMPOUND": "CC1Cc2[nH]c(-c3ccnc(NC(=O)Cc4ccc(F)cc4)c3)c(Nc3ccccc3F)c2C(=O)N1C (single isomer, unassigned; (+)) [Example 101]",
    "RECORDED ENDPOINT": "IC50",
    "OBSERVED RESULT": 258
  },
  {
    "COMPOUND": "CC(C(=O)Nc1cc(-c2[nH]c3c(c2Nc2ccccc2)C(=O)N(C)C2(CCC2)C3)ccn1)c1ccc(F)cc1 (racemic) [Example 157]",
    "RECORDED ENDPOINT": "IC50",
    "OBSERVED RESULT": 50.8
  },
  {
    "COMPOUND": "CN1CCc2[nH]c(-c3ccnc(NC(=O)Cc4ccncc4)c3)c(Nc3ccccc3)c2C1=O [Example 64]",
    "RECORDED ENDPOINT": "IC50",
    "OBSERVED RESULT": 31
  }
]
